Target: human cloned CHRM5 receptor (M5_CHO) (Homo sapiens)
Construct: expressed in transfected cells; host or cells: CHO (M5_CHO)
Assay: CHRM5 Ca++ Flux Assay (agonist mode, FDSS 7000EX)
Type: cell-based
Details: Percent Activity measured to EC100 of Carbachol; read-out: M5 FDSS PA
Measured Emax accompanies every entry in the list below.
Quick note: give the figure in %, leave out the unit.

O=C(C1COC1)N1CC2(CC[C@@H](N3CCC(c4ccccc4OCC4(C(F)(F)F)CC4)CC3)C2)C1 [Example 7II] | 13
COc1ccccc1C1CCN([C@@H]2CCC3(C2)CN(c2cnccn2)C3)CC1 [Example 5H] | 0
c1ccc(C2CCN([C@@H]3CCC4(C3)CN(c3ncncn3)C4)CC2)c(OCC2CCOCC2)c1 [Example 5Q] | 0

Qu. Entry under review: c1ccc(C2CCN([C@@H]3CCC4(C3)CN(c3cncnc3)C4)CC2)c(OCC2CCOCC2)c1 [Example 1M] . Reported Emax?
Ans. 0

Qu. Entry under review: CC(C)(O)COc1ccccc1C1CCN([C@@H]2CCC3(C2)CN(c2cncnc2)C3)CC1 [Example 5B] . Reported Emax?
Ans. 0

Qu. Entry under review: COc1ccccc1C1CCN([C@@H]2CCC3(C2)CN(c2ccc(Cl)nn2)C3)CC1 [Example 5N] . Reported Emax?
Ans. 8

Qu. Entry under review: c1ccc(C2CCN([C@@H]3CCC4(C3)CN(c3cncnc3)C4)CC2)c(OCC2COC2)c1 [Example 1N] . Reported Emax?
Ans. 0

Qu. Entry under review: COc1ccccc1C1CCN([C@@H]2CCC3(C2)CN(c2nccnc2C(F)(F)F)C3)CC1 [Example 5I] . Reported Emax?
Ans. 0

Qu. Entry under review: c1ccc(C2CCN([C@@H]3CCC4(C3)CN(c3nnco3)C4)CC2)c(OC2COC2)c1 [Example 1D] . Reported Emax?
Ans. 0

----------
Target: Cloned human M1 receptor (CHRM1) stably expressed in HEK293 cells (Homo sapiens, UniProt P11229)
Construct: expressed in transfected cells; host or cells: HEK293
Test: CHRM1 Ca++ Flux Assay (agonist mode, FDSS 7000EX)
Format: cell-based
Conditions: HEK293, Percent Activity, read-out: M1 FDSS PA
Measured Emax accompanies every entry in the list below.
Quick note: give the figure in %, leave out the unit.

Completed entries (count: 2):
O=C(C1COC1)N1CC2(CC[C@@H](N3CCC(c4ccccc4OC(F)(F)F)CC3)C2)C1 [Example 12A] | 79
COC(C)(C)COc1ccccc1C1CCN([C@@H]2CCC3(C2)CN(C(=O)C2COC2)C3)CC1 | 82

Attention now shifts to the item below.
Qu. Entry under review: `O=C(C1COC1)N1CC2(CC[C@@H](N3CCC(c4ccccc4OCCC4COC4)CC3)C2)C1` . Reported Emax?
Ans. 80

----------
Biological target: Cloned human M1 receptor (CHRM1) stably expressed in HEK293 cells (Homo sapiens, UniProt P11229)
Sequence (P11229 1-460): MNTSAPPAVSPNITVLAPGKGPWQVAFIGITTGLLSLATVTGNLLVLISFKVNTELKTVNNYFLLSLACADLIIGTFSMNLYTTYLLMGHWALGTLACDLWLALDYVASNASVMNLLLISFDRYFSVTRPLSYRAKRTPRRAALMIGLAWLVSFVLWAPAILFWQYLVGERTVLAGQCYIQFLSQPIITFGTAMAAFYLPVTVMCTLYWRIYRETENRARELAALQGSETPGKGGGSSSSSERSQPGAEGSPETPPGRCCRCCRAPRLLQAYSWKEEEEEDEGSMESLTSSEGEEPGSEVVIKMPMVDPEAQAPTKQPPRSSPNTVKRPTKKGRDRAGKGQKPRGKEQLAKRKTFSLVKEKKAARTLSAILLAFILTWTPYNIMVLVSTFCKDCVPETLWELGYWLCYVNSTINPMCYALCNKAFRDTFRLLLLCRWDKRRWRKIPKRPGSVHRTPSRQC
Assay: CHRM1 Ca++ Flux Assay (agonist mode, FDSS 7000EX)
Settings: geometric mean if tested more than once
measured.property: EC50

Completed entries (count: 2):
COc1ccc(F)cc1C1CCN([C@@H]2CCC3(C2)CN(c2ccnnc2)C3)CC1 [Example 5V] | 0.215 µM
Cc1noc(C)c1COc1ccccc1C1CCN([C@@H]2CCC3(C2)CN(C(=O)C2(F)CC2)C3)CC1 (single isomer, unassigned) [Example 7U] | > 25 µM

Qu. Entry under review: COCCOc1ccccc1C1CCN([C@@H]2CCC3(C2)CN(c2cccnn2)C3)CC1 [Example 5X] . Reported EC50?
Ans. > 25 µM

----------
Biological target: Cloned human M1 receptor (CHRM1) stably expressed in HEK293 cells (Homo sapiens, UniProt P11229)
Construct: expressed in transfected cells; host or cells: HEK293
Sequence (P11229 1-460): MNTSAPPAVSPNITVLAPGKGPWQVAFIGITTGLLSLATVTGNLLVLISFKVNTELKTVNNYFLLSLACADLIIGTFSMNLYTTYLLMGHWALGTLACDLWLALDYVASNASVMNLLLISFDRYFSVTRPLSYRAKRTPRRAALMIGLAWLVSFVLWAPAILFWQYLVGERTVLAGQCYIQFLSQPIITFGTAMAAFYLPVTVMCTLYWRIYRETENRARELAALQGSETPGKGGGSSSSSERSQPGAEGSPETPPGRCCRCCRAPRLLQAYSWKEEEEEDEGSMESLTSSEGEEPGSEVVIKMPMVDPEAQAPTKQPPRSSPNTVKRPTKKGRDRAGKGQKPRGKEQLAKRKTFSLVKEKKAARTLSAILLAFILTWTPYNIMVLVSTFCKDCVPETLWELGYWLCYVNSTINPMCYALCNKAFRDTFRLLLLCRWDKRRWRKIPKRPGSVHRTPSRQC
Assay: CHRM1 Ca++ Flux Assay (agonist mode, FDSS 7000EX)
Format: cell-based
Conditions: HEK293, Percent Activity, read-out: M1 FDSS PA
Measured Emax accompanies every entry in the list below.
Quick note: give the figure in %, leave out the unit.

FC1(COc2ccccc2C2CCN([C@@H]3CCC4(C3)CN(c3nncs3)C4)CC2)CCOCC1 [Example 1J] | 78
c1ccc(C2CCN([C@@H]3CCC4(C3)CN(c3cncnc3)C4)CC2)c(OCC2COC2)c1 [Example 1N] | 70
c1ccc(C2CCN([C@@H]3CCC4(C3)CN(c3cncnc3)C4)CC2)c(OC2COC2)c1 [Example 1K] | 85

Qu. Entry under review: c1ccc(C2CCN([C@@H]3CCC4(C3)CN(c3nnco3)C4)CC2)c(OC2COC2)c1 [Example 1D] . Reported Emax?
Ans. 89

Qu. Entry under review: Cc1ncncc1N1CC2(CC[C@@H](N3CCC(c4ccccc4OCC(C)(C)O)CC3)C2)C1 [Example 5C] . Reported Emax?
Ans. 69

----------
Target: human cloned CHRM5 receptor (M5_CHO) (Homo sapiens, UniProt P08912)
Construct: expressed in transfected cells; host or cells: CHO (M5_CHO)
Sequence (P08912 1-532): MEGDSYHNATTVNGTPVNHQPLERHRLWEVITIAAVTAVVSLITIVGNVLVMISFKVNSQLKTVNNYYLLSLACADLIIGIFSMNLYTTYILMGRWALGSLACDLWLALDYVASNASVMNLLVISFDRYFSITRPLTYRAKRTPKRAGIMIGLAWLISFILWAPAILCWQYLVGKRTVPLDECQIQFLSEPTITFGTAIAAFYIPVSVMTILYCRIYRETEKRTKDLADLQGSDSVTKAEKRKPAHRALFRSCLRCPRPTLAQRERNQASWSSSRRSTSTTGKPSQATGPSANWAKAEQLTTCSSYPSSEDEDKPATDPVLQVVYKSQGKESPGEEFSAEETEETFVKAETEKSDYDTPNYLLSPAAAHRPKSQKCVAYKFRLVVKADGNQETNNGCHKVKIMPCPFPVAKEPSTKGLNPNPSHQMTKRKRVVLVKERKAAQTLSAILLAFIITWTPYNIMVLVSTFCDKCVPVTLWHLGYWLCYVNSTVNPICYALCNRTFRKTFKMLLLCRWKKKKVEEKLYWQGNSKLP
Assay: CHRM5 Ca++ Flux Assay (agonist mode, FDSS 7000EX)
Type: cell-based
Conditions: agonist mode; geometric mean if tested more than once; read-out: M5 FDSS EC50
measured.property: EC50

COCCOc1ccccc1C1CCN([C@@H]2CCC3(C2)CN(c2ncns2)C3)CC1 | > 25 µM
O=C(C1COC1)N1CC2(CC[C@@H](N3CCC(c4ccccc4OCC4(C(F)(F)F)CC4)CC3)C2)C1 | 1.64 µM

Attention now shifts to the item below.
Qu. Enter reported EC50 observed with human cloned CHRM5 receptor (M5_CHO) (Homo sapiens, UniProt P08912) for O=C(N1CC2(CC[C@@H](N3CCC(c4ccccc4OC4CCOCC4)CC3)C2)C1)C1(F)CC1 (single isomer, unassigned) [Example 9E]
Ans. > 25 µM

----------
Measured Emax accompanies every entry in the list below.
Molecular target: human cloned CHRM2 receptor (M2_CHO cells) (Homo sapiens, UniProt P08172)
Construct: expressed in transfected cells; host or cells: CHO-K1
Sequence (P08172 1-466): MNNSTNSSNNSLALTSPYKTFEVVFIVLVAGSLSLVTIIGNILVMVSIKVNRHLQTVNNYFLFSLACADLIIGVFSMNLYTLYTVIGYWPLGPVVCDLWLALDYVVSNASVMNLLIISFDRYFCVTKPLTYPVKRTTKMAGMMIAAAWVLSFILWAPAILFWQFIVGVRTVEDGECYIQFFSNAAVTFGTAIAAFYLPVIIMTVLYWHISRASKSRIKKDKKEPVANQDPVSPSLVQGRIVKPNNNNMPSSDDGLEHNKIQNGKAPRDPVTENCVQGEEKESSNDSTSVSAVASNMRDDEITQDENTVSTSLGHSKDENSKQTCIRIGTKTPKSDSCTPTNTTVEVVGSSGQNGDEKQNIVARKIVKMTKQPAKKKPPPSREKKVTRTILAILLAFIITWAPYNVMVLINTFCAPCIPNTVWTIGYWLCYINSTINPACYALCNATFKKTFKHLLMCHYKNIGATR
Test: CHRM2 Ca++ Flux Assay (agonist mode, FDSS 7000EX)
Assay type: cell-based
Details: Percent Activity measured to EC100 of Carbachol; read-out: M2 FDSS PA
Quick note: give the figure in %, leave out the unit.

Completed entries (count: 5):
Cc1coc(N2CC3(CC[C@@H](N4CCC(c5ccccc5OCC(C)(C)O)CC4)C3)C2)n1 [Example 3O] | 0
CC(C)(O)CCOc1ccccc1C1CCN([C@@H]2CCC3(C2)CN(c2ncns2)C3)CC1 [Example 3L] | 0
c1ccc(C2CCN([C@@H]3CCC4(C3)CN(c3cncnc3)C4)CC2)c(OC2CC3(COC3)C2)c1 [Example 1O] | 0
COc1ccccc1C1CCN([C@@H]2CCC3(C2)CN(c2ccns2)C3)CC1 [Example 3I] | 40
COCCOc1ccccc1C1CCN([C@@H]2CCC3(C2)CN(c2cnc(C)cn2)C3)CC1 [Example 5Y] | 0

Qu. Entry under review: CC(C)(O)CCOc1ccccc1C1CCN([C@@H]2CCC3(C2)CN(c2nncs2)C3)CC1 [Example 3H] . Reported Emax?
Ans. 0

Qu. Entry under review: Fc1ccc(C2CCOC2)c(C2CCN([C@@H]3CCC4(C3)CN(c3nnco3)C4)CC2)c1 (mixture of isomers) [Example 2J] . Reported Emax?
Ans. 37

Qu. Entry under review: COCCOc1ccccc1C1CCN([C@@H]2CCC3(C2)CN(c2cccnn2)C3)CC1 [Example 5X] . Reported Emax?
Ans. 0

Qu. Entry under review: O=C(C1COC1)N1CC2(CC[C@@H](N3CCC(c4ccccc4Oc4nccs4)CC3)C2)C1 [Example 7C] . Reported Emax?
Ans. 0

Qu. Entry under review: COc1ccccc1C1CCN([C@@H]2CCC3(C2)CN(c2nccnc2C)C3)CC1 [Example 5J] . Reported Emax?
Ans. 0

Qu. Entry under review: CC(C)(O)COc1ccccc1C1CCN([C@@H]2CCC3(C2)CN(c2cncnc2)C3)CC1 [Example 5B] . Reported Emax?
Ans. 0

Qu. Entry under review: O=C(C1COC1)N1CC2(CC[C@@H](N3CCC(c4ccccc4OC4CCCC4)CC3)C2)C1 [Example 7G] . Reported Emax?
Ans. 0

Qu. Entry under review: c1ccc(C2CCN([C@@H]3CCC4(C3)CN(c3nnco3)C4)CC2)c(OC2CC3(COC3)C2)c1 [Example 1A] . Reported Emax?
Ans. 0

Reference for the values: patent US12122761B2
